Target: Retinoic acid receptor alpha (Homo sapiens, UniProt P10276)
Sequence (P10276 whole entry): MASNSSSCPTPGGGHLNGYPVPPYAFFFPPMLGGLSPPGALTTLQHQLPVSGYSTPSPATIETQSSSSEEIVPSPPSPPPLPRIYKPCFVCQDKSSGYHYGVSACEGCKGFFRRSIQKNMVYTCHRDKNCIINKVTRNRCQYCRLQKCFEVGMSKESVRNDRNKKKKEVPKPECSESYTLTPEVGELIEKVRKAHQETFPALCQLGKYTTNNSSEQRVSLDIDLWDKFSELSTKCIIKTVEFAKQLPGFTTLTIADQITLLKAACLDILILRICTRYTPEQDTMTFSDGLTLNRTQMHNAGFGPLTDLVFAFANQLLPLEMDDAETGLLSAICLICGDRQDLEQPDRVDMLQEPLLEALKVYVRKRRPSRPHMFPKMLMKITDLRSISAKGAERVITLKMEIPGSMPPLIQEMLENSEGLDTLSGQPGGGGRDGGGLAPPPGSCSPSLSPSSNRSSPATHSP
Assay: Activity at RARalpha (unknown origin)
pEC50: −log10 of the molar value.
property_label: pEC50

**Query** GET /values?readout=pEC50&item= CC1=C(/C=C/C(=C/C=C/C(C)=C/C(=O)O)c2ccc(C)cc2)C(C)(C)CCC1
**Result** < 6.00

* * *

biological target: Transcription factor AP1 (Homo sapiens, UniProt P01100+P05412); assay: Inhibition of Fos-Jun dimer formation (unknown origin) by EMSA method; type: protein-complex assay
Sequence (P01100 whole entry, one chain of several): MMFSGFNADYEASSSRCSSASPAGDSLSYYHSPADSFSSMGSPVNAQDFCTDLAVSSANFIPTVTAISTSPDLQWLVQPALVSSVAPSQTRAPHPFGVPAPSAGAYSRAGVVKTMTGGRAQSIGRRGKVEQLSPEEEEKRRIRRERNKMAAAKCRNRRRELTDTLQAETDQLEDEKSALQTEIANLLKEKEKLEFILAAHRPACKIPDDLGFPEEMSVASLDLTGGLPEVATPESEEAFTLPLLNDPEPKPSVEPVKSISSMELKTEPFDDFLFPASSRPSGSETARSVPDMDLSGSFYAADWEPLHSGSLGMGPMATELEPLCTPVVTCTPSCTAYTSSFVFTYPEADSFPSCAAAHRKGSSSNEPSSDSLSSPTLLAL
Reported pIC50 by item:
Formally, pIC50 is defined as -log10 of the concentration c, with c in mol/L.

Consider the worked cases shown below.
INSERT INTO assay_data (structure, property_label, observed_value) VALUES
  ('CC1(C)CC[C@]2(C(=O)O)CC[C@]3(C)C(=CC[C@@H]4[C@@]5(C)CC[C@H](O[C@@H]6O[C@H](C(=O)O)[C@@H](O)[C@H](O[C@@H]7OC[C@H](O)[C@H](O)[C@H]7O)[C@H]6O)C(C)(C)[C@@H]5CC[C@]43C)[C@@H]2C1', 'pIC50', 3.89),
  ('COc1cccc(/C=C/C(=O)/C=C(O)/C=C/c2cccc(OC)c2)c1', 'pIC50', 5.27),
  ('Cc1ccc(/C=C/C(=O)/C=C(O)/C=C/c2ccc(C)cc2)cc1', 'pIC50', 5.05);

Now for another entry.
**Query** GET /values?readout=pIC50&item= C[C@H]1[C@H](C)CC[C@]2(COC(=O)c3ccccc3C(=O)O)CC[C@]3(C)C(=CC[C@@H]4[C@@]5(C)CC[C@H](OC(=O)c6ccccc6C(=O)O)C(C)(C)[C@@H]5CC[C@]43C)[C@H]12
**Result** 5.40

* * *

target: Transcription factor Jun (Homo sapiens); assay: Inhibition of AP-1-mediated transcriptional activation in human HeLa cells at 1 ug/ml; format: cell-based
Sequence (P05412 whole entry): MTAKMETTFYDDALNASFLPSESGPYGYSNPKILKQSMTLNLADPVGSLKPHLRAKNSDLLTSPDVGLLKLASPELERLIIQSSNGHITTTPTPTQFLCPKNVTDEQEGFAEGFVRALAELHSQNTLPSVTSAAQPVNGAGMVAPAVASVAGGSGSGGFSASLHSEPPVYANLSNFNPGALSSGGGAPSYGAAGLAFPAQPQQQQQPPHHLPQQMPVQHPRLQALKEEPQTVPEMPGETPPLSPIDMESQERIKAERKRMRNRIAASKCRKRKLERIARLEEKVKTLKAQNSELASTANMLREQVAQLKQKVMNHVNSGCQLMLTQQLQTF
property_label: inhibition (%)
Please give a number only; it is taken to be in %.

Consider the worked cases shown below.
INSERT INTO measurements (structure, observed_value) VALUES
  ('O=C(Nc1cc(C(F)(F)F)cc(C(F)(F)F)c1)c1cc(Cl)ccc1O', 42.4),
  ('O=C(Nc1cc(Cl)cc(Cl)c1)c1cc(Cl)ccc1O', 22.7),
  ('O=C(Nc1cc(C(F)(F)F)cc(C(F)(F)F)c1)c1cc(Br)ccc1O', 48.4),
  ('O=C(Nc1cc(C(F)(F)F)cc(C(F)(F)F)c1)c1cc(I)ccc1O', 25.4);

**Query** GET /values?readout=inhibition&item= O=C(Nc1cc(Cl)cc(Cl)c1)c1cc(Br)ccc1O
**Result** 39.3
